Values compiled from ChEMBL document CHEMBL1156771.

Assay: Selectivity ratio, CC50 for human HeLa cells to IC50 for Plasmodium falciparum RKL09
Format: ADME, cell-based
Conditions: read-out: Ratio CC50/IC50
The compounds listed here are annotated with their selectivity ratio.
measurement.label: selectivity ratio

# compound, measurement.label, observed.measurement
measured = [
    ("CCOc1ccc(C2CC(c3ccc(O)cc3)=NN2C(=O)c2cccnc2)cc1OC (stereo not drawn)", "selectivity ratio", 16.6),
    ("O=C(c1cccnc1)N1N=C(c2ccc(O)cc2)CC1c1ccc(Cl)cc1Cl (stereo not drawn)", "selectivity ratio", 18.4),
    ("COc1ccc(Br)cc1C1CC(c2ccc(O)cc2)=NN1C(=O)c1cccnc1 (stereo not drawn)", "selectivity ratio", 11),
]
